Test system: CCRIS mutagenicity, Ames/micronucleus/aberration tests
Experiment: CCRIS mutagenicity studies
Conditions: Test System: AMES SALMONELLA TYPHIMURIUM; Strain/Indicator: TA98; Metabolic Activation: RAT, LIVER, S-9, AROCLOR 1254; Method: PREINCUBATION
Activity calls are given as the source filed them. How the calls were made is not given here.
Classes used: active, inactive

[
  {
    "molecule": "C=C(C)[C@H]1CC=C(C)C(=O)C1",
    "group": "inactive"
  },
  {
    "molecule": "CCn1c(N)nc2c3cccnc3ccc21",
    "group": "active"
  },
  {
    "molecule": "Nc1ccc([N+](=O)[O-])cc1O",
    "group": "active"
  },
  {
    "molecule": "C1COCOC1",
    "group": "inactive"
  },
  {
    "molecule": "C1CS1",
    "group": "inactive"
  },
  {
    "molecule": "O=C(Cl)c1ccccc1F",
    "group": "active"
  },
  {
    "molecule": "O=C1CCCCC1",
    "group": "inactive"
  },
  {
    "molecule": "CN1CCCC1=O",
    "group": "inactive"
  },
  {
    "molecule": "CCC(Cl)C(Cl)C(Cl)CC(Cl)C(Cl)C(C)Cl (centres undefined)",
    "group": "inactive"
  }
]

----------
Test system: CCRIS mutagenicity, Ames/micronucleus/aberration tests
Assay: CCRIS mutagenicity studies
Settings: Test System: AMES SALMONELLA TYPHIMURIUM; Strain/Indicator: TA1538; Metabolic Activation: S-9; Method: STANDARD PLATE
The source made the active and inactive calls. How the calls were made is not given here.
measured.endpoint: mutagenic call

[
  {
    "compound": "CCc1cccc(CC)c1N(COC)C(=O)CCl",
    "measured.endpoint": "mutagenic call",
    "value.observed": "inactive; negative"
  },
  {
    "compound": "CN(C)CCn1cc[n+](C)c1/C=N/O",
    "measured.endpoint": "mutagenic call",
    "value.observed": "inactive; negative"
  },
  {
    "compound": "CC(C)NCC(O)COc1cccc2c1OCC(O)C2 (stereo not given)",
    "measured.endpoint": "mutagenic call",
    "value.observed": "inactive; negative"
  },
  {
    "compound": "C[n+]1ccn(CCC[n+]2ccc(C(N)=O)cc2)c1/C=N/O",
    "measured.endpoint": "mutagenic call",
    "value.observed": "inactive; negative"
  },
  {
    "compound": "O=C(O)[C@@H]1CS[C@H](c2ccccc2O)N1C(=O)CCS",
    "measured.endpoint": "mutagenic call",
    "value.observed": "inactive; negative"
  }
]

----------
System: CCRIS mutagenicity, Ames/micronucleus/aberration tests
Experiment: CCRIS mutagenicity studies
Conditions: Test System: AMES SALMONELLA TYPHIMURIUM; Strain/Indicator: TA100(NR); Metabolic Activation: NONE; Method: PREINCUBATION
Text: The CCRIS database contains chemical records with carcinogenicity, mutagenicity, tumor promotion, and tumor inhibition test results. It was developed by the National Cancer Institute (NCI). Data are derived from studies cited in primary journals, current awareness tools, NCI reports, and other sources. Test results have been reviewed by experts in carcinogenesis and mutagenesis. CCRIS provides historical information from the years 1985 - 2011. It is no longer updated. […]
Active and inactive are the calls of the source. The rule behind the calls is not given here.
Classes used: active, inactive

[
  {
    "structure.as.smiles": "O=[N+]([O-])c1ccccc1SSC(F)=C(Cl)Cl",
    "group": "active"
  },
  {
    "structure.as.smiles": "O=[N+]([O-])c1ccc(F)c([N+](=O)[O-])c1",
    "group": "active"
  },
  {
    "structure.as.smiles": "Nc1ccccc1N",
    "group": "inactive"
  },
  {
    "structure.as.smiles": "O=[N+]([O-])c1ccccc1SSC(Cl)=C(Cl)Cl",
    "group": "active"
  },
  {
    "structure.as.smiles": "O=[N+]([O-])c1ccc(Cl)c([N+](=O)[O-])c1",
    "group": "active"
  },
  {
    "structure.as.smiles": "Nc1ccc(Oc2ccc([N+](=O)[O-])cc2)cc1",
    "group": "active"
  }
]

The values you see were collected from PubChem BioAssay AID1259407.
